Provenance of the data: the supplement of paper PMC13380429

System: Calu-3
Assay: cell viability relative to DMSO; higher = less toxic
Conditions: 72 h; 10000 nM
Readout label: cell viability (%)
Answers are plain numbers, in %.

Below are worked cases with known answers.
- CC(C)(C)C(=O)C(Oc1ccc(Cl)cc1)n1ccnc1 (stereo not drawn): 101
- O=S(=O)(O)c1ccc2[nH]c(-c3ccccc3)nc2c1: 89.2
- CCCN(CCC)C(=O)Cc1c(-c2ccc(Cl)cc2)nc2ccc(Cl)cn12: 107
- CC/C=C\C/C=C\C/C=C\C/C=C\C/C=C\C/C=C\CCC(=O)OCC: 108
- O=C(Nc1ccccc1)Nc1ccc(-c2ccc(C(=O)[C@@H]3CCC[C@@H]3C(=O)O)cc2)cc1: 108
- CC[N+](CC)(CC)CC(=O)Nc1c(C)cccc1C: 89.2

List the reported cell viability of each molecule below.
1. CC[C@@H](c1ccc(F)c(F)c1)n1c(C(=O)OC)c(-c2ccno2)[nH]c1=S
2. Nc1c(S(=O)(=O)O)cc(Nc2cccc3ccccc23)c2c1C(=O)c1ccccc1C2=O

99.8
93.2
